The measurements presented in this section are drawn from PubChem BioAssay AID2046.

System: Ras-related protein Rab-2A (Canis lupus familiaris) | Read-out: Ki
Endpoint: Ki (µM)

# Smiles Code, Scale Unit, Endpoint Value
measured = [
    ("O=Nc1c(-c2c(O)[nH]c3ccc(Br)cc23)[nH]c2ccccc12", "µM", 4.15),
]

P: COc1ccc2cc([C@@H](C)C(=O)O)ccc2c1
Q: O=Nc1c(-c2c(O)[nH]c3c(Br)cccc23)[nH]c2ccccc12
// query Of P versus Q , which is the one with smaller reported Ki? Write the label of whichever entry you select.
// result P
(P: 0.11 µM, Q: 4.19 µM)
